System: L929 cells
assay.details: MTT cytotoxicity assay, L929 healthy cells
Assay type: cell-based
applied.conditions: L929, 24 h incubation, healthy mouse fibroblast
property.measured: IC50 (µM)
The answer is to be given in µM; state only the numeric part.

In: Fill in the blank: the reported IC50 of Cc1ccc(C(=O)NCc2nc3ccccc3s2)cc1 is ____.
Out: 29.1

In: // next record O=C(Nc1nc2ccccc2s1)c1ccccc1 [Compound 7, N‐(Benzo[d]thiazol‐2‐yl) benzamide]
Out: 26.9

In: // next record O=C(NCc1nc2ccccc2s1)c1cccs1
Out: 22.2

In: // next record COc1ccc(C(=O)NCc2nc3ccccc3s2)cc1
Out: 25.1

meta.source: paper PMC11975549
